- procedure text: biodistribution and PET/CT in ZR-75-1 tumor-bearing NOD scid gamma mice
- conditions: female, NOD scid gamma (NOD.Cg-Prkdc^sci Il2rg^tm1Wjl/SzJ), mouse, in vivo, iv, total radioactivity, Blood uptake
We begin with a simple list: items and their reported tissue uptake at 1 h.
Provide the reading as a plain figure in %ID/g.

compound	tissue uptake at 1 h / %ID/g
C[C@@H](O)[C@@H]1NC(=O)[C@H](CCCCN)NC(=O)[C@@H](Cc2ccc(NC(N)=O)cc2)NC(=O)[C@H](Cc2ccc(NC(=O)[C@@H]3CC(=O)NC(=O)N3)cc2)NC(=O)[C@H](NC(=O)[C@H](Cc2ccc(Cl)cc2)NC(=O)CCC(C(=O)O)N2CCN(CC(=O)O)CCN(CC(=O)O)CC2)CSSC[C@@H](C(=O)N[C@H](Cc2ccc(O)cc2)C(N)=O)NC1=O (stereo partly drawn) [^68Ga-NODAGA-JR11, metal not drawn]	0.8
C[C@@H](O)[C@H](NC(=O)[C@@H]1CSSC[C@H](NC(=O)[C@@H](Cc2ccccc2)NC(=O)CN2CCN(CC(=O)O)CCN(CC(=O)O)CCN(CC(=O)O)CC2)C(=O)N[C@@H](Cc2ccc(O)cc2)C(=O)N[C@H](Cc2c[nH]c3ccccc23)C(=O)N[C@@H](CCCCN)C(=O)N[C@@H]([C@@H](C)O)C(=O)N1)C(=O)O [^68Ga-DOTATATE, ^68Ga-DOTA-Tyr^3-octreotate, metal not drawn]	0.35

Next up:
Exercise: Report tissue uptake at 1 h for C[C@@H](O)[C@@H]1NC(=O)[C@H](CCCCN)NC(=O)[C@@H](Cc2c[nH]c3ccccc23)NC(=O)[C@H](Cc2ccc(O)cc2)NC(=O)[C@@H](NC(=O)[C@@H](Cc2ccccc2)NC(=O)CN2CCN(CC(=O)O)CCN(CC(=O)O)CCN(CC(=O)O)CC2)CSSC[C@@H](C(=O)N[C@H](CO)[C@@H](C)O)NC1=O [^68Ga-DOTATOC, ^68Ga-DOTA-Tyr^3-octreotide, metal not drawn]
Key: 0.45

---

We begin with a simple list: items and their reported tissue uptake at 1 h.
- procedure text: biodistribution and PET/CT in ZR-75-1 tumor-bearing NOD scid gamma mice
- conditions: female, NOD scid gamma (NOD.Cg-Prkdc^sci Il2rg^tm1Wjl/SzJ), mouse, in vivo, iv, total radioactivity, Spleen uptake
Provide the reading as a plain figure in %ID/g.

The cases that follow already have their tissue uptake at 1 h on record.
molecule	measurement kind	quantitative readout
C[C@@H](O)[C@@H]1NC(=O)[C@H](CCCCN)NC(=O)[C@@H](Cc2c[nH]c3ccccc23)NC(=O)[C@H](Cc2ccc(O)cc2)NC(=O)[C@@H](NC(=O)[C@@H](Cc2ccccc2)NC(=O)CN2CCN(CC(=O)O)CCN(CC(=O)O)CCN(CC(=O)O)CC2)CSSC[C@@H](C(=O)N[C@H](CO)[C@@H](C)O)NC1=O [^68Ga-DOTATOC, ^68Ga-DOTA-Tyr^3-octreotide, metal not drawn]	tissue uptake at 1 h	0.46
C[C@@H](O)[C@@H]1NC(=O)[C@H](CCCCN)NC(=O)[C@@H](Cc2ccc(NC(N)=O)cc2)NC(=O)[C@H](Cc2ccc(NC(=O)[C@@H]3CC(=O)NC(=O)N3)cc2)NC(=O)[C@H](NC(=O)[C@H](Cc2ccc(Cl)cc2)NC(=O)CCC(C(=O)O)N2CCN(CC(=O)O)CCN(CC(=O)O)CC2)CSSC[C@@H](C(=O)N[C@H](Cc2ccc(O)cc2)C(N)=O)NC1=O (stereo partly drawn) [^68Ga-NODAGA-JR11, metal not drawn]	tissue uptake at 1 h	0.39

Next up:
Exercise: Report tissue uptake at 1 h for C[C@@H](O)[C@H](NC(=O)[C@@H]1CSSC[C@H](NC(=O)[C@@H](Cc2ccccc2)NC(=O)CN2CCN(CC(=O)O)CCN(CC(=O)O)CCN(CC(=O)O)CC2)C(=O)N[C@@H](Cc2ccc(O)cc2)C(=O)N[C@H](Cc2c[nH]c3ccccc23)C(=O)N[C@@H](CCCCN)C(=O)N[C@@H]([C@@H](C)O)C(=O)N1)C(=O)O [^68Ga-DOTATATE, ^68Ga-DOTA-Tyr^3-octreotate, metal not drawn]
Key: 0.84
